Record form. Attribute: thermal melting temperature. Fill in for each entry.
- TGT: HLA-C*04:01
- ASSAY_INFO: thermal melting temperature (Tm) of peptide-HLA complex; higher = more thermostable pHLA complex
- EXPERIMENTAL_SETUP: C1R-A*02:01
Answers are plain numbers, in °C.

The cases that follow already have their thermal melting temperature on record.
RECORD_SEQUENCE	thermal melting temperature [°C]
NYDEALRLL	54
IYDEAISSF	58.9

Alright, here's another sequence for you.
Request the reported thermal melting temperature associated with SFDDTNEKF
49.8
